This section presents sequences with their documented IC50 values.
- target: HLA-DR DRB1*0405 (DR4) (Homo sapiens, UniProt P01903+P01911, A100R/A169T/D86S/F76Y/I96L/K127E/L162R/M171V/N62H/P40V/Q125Y/R42H/S133A/S149N/S66Y/V115G/V209L/W38E)
- assayRemarks: biochemical
- Type: binding
- testSettings: DRB1 *0405
No end group written: not given here.
Please give a number only; it is taken to be in nM.

QHLTGSHLVEALYLV ... 7420
KLSQELHKLQTYPRT ... 12200
FLRSVFANSLVYGAS ... 59
RSSNCQSQKLLWQLN ... 4010
APPRLITDSRVLERY ... 7770
LRVVQQLLMGALTVT ... 85
SDSNIYDLLKDLEEG ... 137
TSLTFSESIPTPSNR ... 686
VEALYLVCGERGFFY ... 1040
ICLLLIQSWLEPVQF ... 71

Task: Name the recorded IC50 for LYFVKVDVTGAYDTI .
Result: 14

Task: Consider the sequence QLAFDTYQEFEQNPQ and give its measured IC50.
Result: 4840

Task: For the sequence shown here, EQTTTSITSLYQLEN , give the reported IC50.
Result: 272

Task: Item under review: SFLQNPQTSLTFSES . Reported IC50?
Result: 9560

Task: Reported IC50, sequence HLDMLRHLYQGCQVV : ____
Result: 3590

Task: Looking for the measured IC50 of YLAMPFATPMEAELARRSLA , can you help?
Result: 405

Task: # get_value(readout='IC50', item= CKFVVQLDIQSTKED [CKFVVQLDIQSTKED] )
Result: 374

Task: Given the sequence AVTIYEMLQNIFAIF , what is its reported IC50?
Result: 163

Task: Could you tell me which IC50 is on file for ALLKNYGLLYTFRKD ?
Result: 303

Task: # IC50 lookup, item RTSIRASLTFNRGFK
Result: 5130

Task: Field request: IC50 | item: MSYNLLGFLQRSSNT
Result: 433

Task: Any idea what its IC50 is? The sequence is RTITADTFRKLFRVY
Result: 1960

Task: Value lookup for IC50; key = SWLEPVQFLRSVFAN
Result: 883

Task: Name the reported IC50 value associated with the sequence QTQKLLWQLNGRLEY
Result: 86

Task: For the sequence PVIKNSIKLRL , what IC50 is on record?
Result: 278000

Task: Quick one: IC50 of RQDILDLWVYHTQGY ?
Result: 1140

Task: What value of IC50 has been reported for the following sequence? EHTSLNENITVPDTK
Result: 1240

Task: I would be grateful if you could share the reported IC50 for ISLLLIQSWLEPVQF .
Result: 0.86

Task: Record request: IC50 value, item GIVEQTTTSITSLYQ
Result: 818

Task: Request the reported IC50 associated with DLFVVYRDSIPHAAC
Result: 3590

Task: Find the recorded IC50 belonging to VFEFAFKDLFVVYRD and report it.
Result: 120

Task: I have this sequence here, WKRMEVGQQAVEVWQ , and I need its recorded IC50.
Result: 94
